- tested target: Neuropilin-1 (Homo sapiens) (UniProt O14786)
- Sequence (O14786 whole entry, looked up): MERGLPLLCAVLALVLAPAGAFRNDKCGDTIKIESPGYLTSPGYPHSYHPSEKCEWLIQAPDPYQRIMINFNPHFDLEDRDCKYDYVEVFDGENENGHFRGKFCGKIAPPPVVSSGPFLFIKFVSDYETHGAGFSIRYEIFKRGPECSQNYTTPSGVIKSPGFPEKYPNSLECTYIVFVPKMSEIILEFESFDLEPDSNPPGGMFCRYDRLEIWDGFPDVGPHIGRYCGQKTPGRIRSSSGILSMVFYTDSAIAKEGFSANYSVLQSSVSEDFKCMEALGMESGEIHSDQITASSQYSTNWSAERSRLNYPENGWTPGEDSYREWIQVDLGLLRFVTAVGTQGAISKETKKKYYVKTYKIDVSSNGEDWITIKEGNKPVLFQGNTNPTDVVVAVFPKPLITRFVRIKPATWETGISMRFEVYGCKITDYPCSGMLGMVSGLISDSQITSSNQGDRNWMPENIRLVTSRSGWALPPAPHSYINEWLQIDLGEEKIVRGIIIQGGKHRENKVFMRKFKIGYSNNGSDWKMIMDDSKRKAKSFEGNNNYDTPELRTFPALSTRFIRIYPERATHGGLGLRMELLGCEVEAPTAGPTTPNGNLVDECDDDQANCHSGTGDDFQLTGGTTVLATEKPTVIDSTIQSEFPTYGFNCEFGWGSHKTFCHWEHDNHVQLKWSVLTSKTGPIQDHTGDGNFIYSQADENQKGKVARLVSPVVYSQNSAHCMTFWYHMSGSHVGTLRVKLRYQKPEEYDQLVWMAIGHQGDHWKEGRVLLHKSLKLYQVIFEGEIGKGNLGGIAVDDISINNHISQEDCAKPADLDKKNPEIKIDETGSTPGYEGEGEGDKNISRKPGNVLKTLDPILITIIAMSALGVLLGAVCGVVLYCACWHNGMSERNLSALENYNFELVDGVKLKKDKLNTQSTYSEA
- protocol: NRP-1/CendR peptide interaction modulators – biochemical, fluorescence polarization, uHTS, primary screen (AID 602438)
- run parameters: FAM-RPARPAR peptide binding to NRP-1, fluorescence polarization; at 25 µM; active compounds read high
The campaign covered roughly 360,000 compounds. About 3,100 (0.86%) were called active. What follows is part of a selection rich in actives, with near analogues and random picks from the rest.
Assignment: determine reported inhibition for the given molecules.
Give bare numbers, in %.

Use these answered entries as a reference point.
Given the entry CCN(CC)S(=O)(=O)c1ccc2[nH]cc(C(=O)NCCc3ccccc3)c(=O)c2c1 , report its measured inhibition.
8.6

Same lookup for COc1cccc(CNC(=O)C2CCN(S(=O)(=O)c3cccc4cccnc34)CC2)c1 , please.
-3

Same lookup for CN(C(=O)C1CCN(c2ncnc3c2nc2n3CCCCC2)CC1)C1CCCCC1 , please.
18.4

Same lookup for CN(Cc1ccccc1)C(=O)C1CCCN(c2ncnc3c2nc2n3CCCCC2)C1 (stereo not given) , please.
10

Same lookup for COc1ccc(CN(C)C(=O)Cc2c[nH]c3ccccc23)c(OC)c1OC , please.
-1.4

Same lookup for COc1ccccc1NC(=O)CCCc1c[nH]c2ccccc12 , please.
65.3

Same lookup for CCCN(CCC)S(=O)(=O)c1ccc(C(=O)NNC(=O)c2cc(OC)c(OC)c(OC)c2)cc1 , please.
-2.3

Same lookup for CC(CC(=O)C1C(C)C=CCC1(C)C)NNC(N)=O (stereo not given) , please.
12.3

Same lookup for COc1ccc(Cl)cc1NC(=O)CN(C)C(=O)CCCc1c[nH]c2ccccc12 , please.
7.5

Next:
Given the entry O=C(OCc1ccc([N+](=O)[O-])cc1)C1CC(=O)N(Cc2ccccc2Cl)C1 (stereo not given) , report its measured inhibition.
-11.4

---

- tested target: Neuropilin-1 (Homo sapiens)
- protocol: NRP-1/CendR peptide interaction modulators – biochemical, fluorescence polarization, uHTS, primary screen (AID 602438)
- run parameters: FAM-RPARPAR peptide binding to NRP-1, fluorescence polarization; at 25 µM; active compounds read high
In all, about 360,000 compounds went through this assay and about 3,100 (0.86%) were called active. The full list was thinned out, with actives kept by preference.
Assignment: determine reported inhibition for the given compounds.
Numbers only, in %.

Use these answered entries as a reference point.
Given the entry CCN(CC)C(=O)CSC(Nc1cccc(F)c1)=C(C#N)C#N , report its measured inhibition.
-180

Same lookup for CCC(C(=O)OC)n1cnc2scc(-c3ccc(C)cc3)c2c1=O (stereo unspecified) , please.
91.3

Same lookup for CCOC(=O)CSc1nccc(N(C)C)c1C#N , please.
25.2

Same lookup for CC(=O)NC(Cc1c[nH]c2ccccc12)C(=O)NCCc1ccccc1 (stereo unspecified) , please.
6.7

Same lookup for CCOC(=O)CSc1ccccn1 , please.
2.8

Look up inhibition for the entries below, preserving their order.
1. COC(=O)c1cccc(N(C(=O)CNC(=O)c2cccs2)C(C(=O)NCC2CCCO2)c2ccc(OC)c(OC)c2)c1 (stereo unspecified)
2. CC(=O)NC(Cc1ccc(F)cc1)C(=O)O (stereo unspecified)
3. O=C(CN1CCN(Cc2ccc(F)cc2Cl)C1=O)NCc1cccs1
4. CCOC(=O)C(C)n1cnc2scc(-c3ccc(C)c(C)c3)c2c1=O (stereo unspecified)

6.4
-13.6
-1.9
9.9

Look up inhibition for the entries below, preserving their order.
1. O=C(NCCN1CCOCC1)c1ccccc1N1C(=O)[C@@H]2Cc3c([nH]c4ccccc34)C(c3cccc(Cl)c3)N2C1=O (stereo partly specified)
2. COc1nc(OC)nc(N(C)CCO)n1

1: -5.5; 2: 14.8

---

- tested target: Neuropilin-1 (Homo sapiens)
- protocol: NRP-1/CendR peptide interaction modulators – biochemical, fluorescence polarization, uHTS, primary screen (AID 602438)
- run parameters: FAM-RPARPAR peptide binding to NRP-1, fluorescence polarization; at 25 µM
The campaign covered roughly 360,000 compounds. About 3,100 (0.86%) were called active.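 Rule for the calls: active = inhibition or corrected inhibition above about 18%, plus a signal ratio from 0.5 to 1.5 (limit read from the data, passing the limit was not always enough); inactive = the rest.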 The list comes from a sample in which actives are over-represented; it also holds close analogues and randomly drawn compounds.
Respond only with the outcome that fits, drawn from True for active, False for inactive

Examples with answers:
Which outcome was entered for the molecule COc1ccc(OC)c(S(=O)(=O)NCCC(C)C)c1 in this test?
False

Same lookup for COc1ccc(NC(=O)c2cc(=O)[nH]c3ccccc23)cc1S(=O)(=O)N1CCOCC1 , please.
True

Same lookup for Cc1ccc2c(c1)C1C[N+](C)(CC(=O)c3ccccc3)CCC1N2C(=O)c1ccccc1Cl (configuration not stated) , please.
False

Same lookup for Cc1ccc2c(c1)C1CN(C)CCC1N2C(=S)Nc1ccc(Cl)cc1Cl (configuration not stated) , please.
False

Same lookup for COc1ccc(CC(=O)OC(C)C(=O)Nc2ccc(S(N)(=O)=O)cc2)cc1 (configuration not stated) , please.
False

Next:
Which outcome was entered for the molecule CC(C)(CNC(=O)c1cc(=O)[nH]c2ccccc12)N1CCOCC1 in this test?
False

Same lookup for O=C(COc1ccc(S(=O)(=O)NCCc2ccccc2)cc1)N1CCCC1 , please.
False

Same lookup for CCOC(=O)C1CCN(C(=O)c2ccccc2N(C)S(=O)(=O)c2ccccc2)CC1 , please.
False

Same lookup for Cc1ccc2c(c1)C1CN(C)CCC1N2C(=O)c1ccccc1NS(=O)(=O)c1ccc(F)cc1C (configuration not stated) , please.
True

Same lookup for CCCCCNC(=O)c1cccnc1SCC(=O)Nc1ccccc1OC , please.
False

Same lookup for Cc1cc(=O)oc2c(C)c(OC(C)C(=O)NC3CCN(Cc4ccccc4)CC3)ccc12 (configuration not stated) , please.
False

Same lookup for O=C(COc1ccc(/C=N/NS(=O)(=O)c2ccccc2)cc1)NCCc1ccccc1 , please.
True

Same lookup for O=C(C1CCCO1)N(c1ccc(F)cc1)C1C=CS(=O)(=O)C1 (configuration not stated) , please.
False

Same lookup for CC(=O)c1c(N)n(C)c(=O)n(C)c1=O , please.
False

---

- tested target: Neuropilin-1 (Homo sapiens) (UniProt O14786)
- protocol: NRP-1/CendR peptide interaction modulators – biochemical, fluorescence polarization, uHTS, primary screen (AID 602438)
- run parameters: FAM-RPARPAR peptide binding to NRP-1, fluorescence polarization; at 25 µM; active compounds read high
About 3,100 (0.86%) of roughly 360,000 compounds were called active. The full list was thinned out, with actives kept by preference.
Assignment: determine reported inhibition for the given molecules.
Give bare numbers, in %.

Use these answered entries as a reference point.
Given the entry COC(=O)c1cc(OCC(=O)NC2CCCc3ccccc32)cc(C(=O)OC)c1 (stereo not given) , report its measured inhibition.
11.6

Same lookup for COc1ccc(CN(C)C(C)C(=O)NC2CCCc3ccccc32)cc1 (stereo not given) , please.
-9.8

Same lookup for CCOC(=O)c1[nH]c2ccc(C)cc2c1N=C(C)N(C)C , please.
28.1

Same lookup for CCOC(=O)C1(C)CCCN(C(=O)c2ccc(N(C)C)cc2)C1 (stereo not given) , please.
-8.3

Same lookup for O=C1CCC/C=C/C[C@@H](CC(=O)N(CCO)Cc2ccccc2)C(=O)NC[C@H](c2ccccc2)O1 , please.
4.9

Look up inhibition for the entries below, preserving their order.
1. CN1CCN(c2cc3c(cc2F)c(=O)c(C(=O)O)cn3CCF)CC1
2. COc1ccc2c(c1)C(NS(=O)(=O)OCC(Cl)(Cl)Cl)CCC2 (stereo not given)
3. CCCC(=O)NC(Nc1ccccc1OC)C(Cl)(Cl)Cl (stereo not given)
4. O=C1NC[C@@H](c2ccccc2)OC(=O)[C@H](Cc2ccc(F)cc2)CC/C=C/C[C@H]1CC(=O)N(CCO)Cc1ccccc1
5. CCOC(=O)C1(C)CCCN(C(=O)c2cccc(Cl)c2)C1 (stereo not given)

1. 11.3
2. 20.7
3. -6.4
4. 23.4
5. 20

---

- tested target: Neuropilin-1 (Homo sapiens)
- protocol: NRP-1/CendR peptide interaction modulators – biochemical, fluorescence polarization, uHTS, primary screen (AID 602438)
- run parameters: FAM-RPARPAR peptide binding to NRP-1, fluorescence polarization; at 25 µM
The campaign covered roughly 360,000 compounds. About 3,100 (0.86%) were called active.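 Rule for the calls: active = inhibition or corrected inhibition above about 18%, plus a signal ratio from 0.5 to 1.5 (limit read from the data, passing the limit was not always enough); inactive = the rest.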 What follows is part of a selection rich in actives, with near analogues and random picks from the rest.
Respond only with the outcome that fits, drawn from active, inactive

Examples with answers:
Which outcome was entered for the compound Cc1ccc(CC2CC(=O)N(c3ccc4c(c3)OCCO4)C2=O)cc1 (stereo unspecified) in this test?
inactive

Same lookup for CCC(=O)c1cn(CCOc2ccccc2OC)c2ccccc12 , please.
inactive

Next:
Which outcome was entered for the compound Cc1cc(S(=O)(=O)c2cc3ccc(O)c(C)c3oc2=O)ccc1F in this test?
inactive

Same lookup for COc1ccccc1CCNS(=O)(=O)c1cc2c3c(c1)C(C)C(=O)N3CCC2 (stereo unspecified) , please.
inactive

Same lookup for O=C(NCc1ccccc1Cl)C1CCN(c2ncnc3c2nc2n3CCCCC2)CC1 , please.
inactive

Same lookup for CCCCN1CCNC1=S , please.
inactive

Same lookup for O=C(/C=N/O)Nc1ccccc1 , please.
inactive
